tested.system: UniProtKB O60674
Sequence (O60674 whole entry, the tested form may be a part): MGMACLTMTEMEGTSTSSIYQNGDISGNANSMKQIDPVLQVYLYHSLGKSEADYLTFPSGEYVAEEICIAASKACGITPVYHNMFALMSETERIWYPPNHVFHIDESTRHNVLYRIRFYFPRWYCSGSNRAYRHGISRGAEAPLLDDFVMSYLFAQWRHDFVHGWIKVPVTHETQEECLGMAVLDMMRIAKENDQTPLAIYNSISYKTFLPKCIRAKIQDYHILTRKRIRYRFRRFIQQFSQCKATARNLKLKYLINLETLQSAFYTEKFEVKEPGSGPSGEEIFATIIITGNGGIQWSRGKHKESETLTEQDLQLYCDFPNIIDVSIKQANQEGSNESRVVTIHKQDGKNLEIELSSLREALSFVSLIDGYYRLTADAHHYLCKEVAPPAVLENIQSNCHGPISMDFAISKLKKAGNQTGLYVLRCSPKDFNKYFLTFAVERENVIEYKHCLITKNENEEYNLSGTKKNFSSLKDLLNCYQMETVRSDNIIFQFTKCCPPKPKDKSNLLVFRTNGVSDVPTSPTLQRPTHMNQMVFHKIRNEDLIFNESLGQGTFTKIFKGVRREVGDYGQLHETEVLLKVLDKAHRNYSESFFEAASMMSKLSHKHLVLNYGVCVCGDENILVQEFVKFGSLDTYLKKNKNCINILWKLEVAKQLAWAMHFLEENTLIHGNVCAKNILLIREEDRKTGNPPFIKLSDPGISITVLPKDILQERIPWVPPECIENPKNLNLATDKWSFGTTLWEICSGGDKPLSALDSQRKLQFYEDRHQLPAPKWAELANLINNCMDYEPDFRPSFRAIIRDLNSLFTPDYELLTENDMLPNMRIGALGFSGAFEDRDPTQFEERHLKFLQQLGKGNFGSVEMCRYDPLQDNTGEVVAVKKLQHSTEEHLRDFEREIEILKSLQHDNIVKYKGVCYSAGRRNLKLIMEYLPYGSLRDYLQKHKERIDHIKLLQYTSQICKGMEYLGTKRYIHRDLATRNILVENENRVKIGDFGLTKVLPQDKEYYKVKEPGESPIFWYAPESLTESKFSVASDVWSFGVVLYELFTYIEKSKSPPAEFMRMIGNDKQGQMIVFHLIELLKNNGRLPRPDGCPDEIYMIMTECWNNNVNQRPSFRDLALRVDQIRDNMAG
experiment.summary: Inhibition of recombinant human N-terminal His-tagged JAK2 catalytic domain (826 to 1132 residues) expressed in baculovirus expression system using Biotin-Lyn-Substrate2 after 1 hr by ELISA
Recorded pIC50, one value per entry.
pIC50 is defined as minus the log10 of a concentration measured in mol/L.

Below, 3 compounds whose answers are already recorded.
NC(=O)c1cnc2[nH]ccc2c1NC1C2CC3CC1CC(F)(C3)C2 (stereo not given) | 7.96
COC12CC3CC(C1)C(Nc1c(C(N)=O)cnc4[nH]ccc14)C(C3)C2 (stereo not given) | 8.30
NC(=O)c1cnc2[nH]ccc2c1NC12CC3CC(CC(C3)C1)C2 | 6.92

Problem: Find the measured pIC50: item NC(=O)c1cnc2[nH]ccc2c1N[C@@H]1C[C@H]2CC[C@@H]1C2 (racemic) , target or system UniProtKB O60674.
Result: 7.82

Problem: Find the measured pIC50: item NC(=O)c1cnc2[nH]ccc2c1NC1C2CC3CC(C2)CC1C3 (stereo not given) , target or system UniProtKB O60674.
Result: 7.96

###

experiment.summary: Half life in Sprague-Dawley rat at 1 mg/kg, po administered as single dose by LC-MS/MS analysis
Assay type: ADME, organism-based
conditions: in vivo
measured.endpoint: half-life (h)
Respond numerically; units are h and should not be typed.

Problem: I have this molecule here, Br.NC(=O)c1cnc2[nH]ccc2c1NC1C2CC3CC1CC(O)(C3)C2 (stereo unspecified) , and I need its recorded half-life.
Result: 2.12

###

experiment.summary: Oral bioavailability in Sprague-Dawley rat at 1 mg/kg administered as single dose by LC-MS/MS analysis
Assay type: ADME, organism-based
conditions: in vivo
measured.endpoint: bioavailability (%)
Respond numerically; units are % and should not be typed.

Problem: I have this compound here, Br.NC(=O)c1cnc2[nH]ccc2c1NC1C2CC3CC1CC(O)(C3)C2 (stereo unspecified) , and I need its recorded bioavailability.
Result: 45.9

###

experiment.summary: Total clearance in Sprague-Dawley rat at 1 mg/kg, iv administered as single dose by LC-MS/MS analysis
Type: ADME, organism-based
conditions: in vivo
measured.endpoint: clearance
Remember to quote the unit after the number.

Problem: I have this compound here, Br.NC(=O)c1cnc2[nH]ccc2c1NC1C2CC3CC1CC(O)(C3)C2 (stereo unspecified) , and I need its recorded clearance.
Result: 29 mL/min/kg

###

experiment.summary: Tmax in Sprague-Dawley rat at 1 mg/kg, po administered as single dose by LC-MS/MS analysis
Type: ADME, organism-based
conditions: in vivo
measured.endpoint: Tmax (min)
Respond numerically; units are min and should not be typed.

Problem: I have this compound here, Br.NC(=O)c1cnc2[nH]ccc2c1NC1C2CC3CC1CC(O)(C3)C2 (stereo unspecified) , and I need its recorded Tmax.
Result: 15

###

experiment.summary: AUC (0 to infinity) in Sprague-Dawley rat at 1 mg/kg, iv administered as single dose by LC-MS/MS analysis
Assay type: ADME, organism-based
Set-up: dose 1 mg/kg, time infinity, route intravenous
conditions: in vivo
measured.endpoint: AUC(0-inf) (ng·h/mL)
Respond numerically; units are ng·h/mL and should not be typed.

Problem: I have this compound here, Br.NC(=O)c1cnc2[nH]ccc2c1NC1C2CC3CC1CC(O)(C3)C2 (stereo unspecified) , and I need its recorded AUC(0-inf).
Result: 575

###

tested.system: Tyrosine-protein kinase JAK3 (Homo sapiens, UniProt P52333)
Sequence (P52333 whole entry): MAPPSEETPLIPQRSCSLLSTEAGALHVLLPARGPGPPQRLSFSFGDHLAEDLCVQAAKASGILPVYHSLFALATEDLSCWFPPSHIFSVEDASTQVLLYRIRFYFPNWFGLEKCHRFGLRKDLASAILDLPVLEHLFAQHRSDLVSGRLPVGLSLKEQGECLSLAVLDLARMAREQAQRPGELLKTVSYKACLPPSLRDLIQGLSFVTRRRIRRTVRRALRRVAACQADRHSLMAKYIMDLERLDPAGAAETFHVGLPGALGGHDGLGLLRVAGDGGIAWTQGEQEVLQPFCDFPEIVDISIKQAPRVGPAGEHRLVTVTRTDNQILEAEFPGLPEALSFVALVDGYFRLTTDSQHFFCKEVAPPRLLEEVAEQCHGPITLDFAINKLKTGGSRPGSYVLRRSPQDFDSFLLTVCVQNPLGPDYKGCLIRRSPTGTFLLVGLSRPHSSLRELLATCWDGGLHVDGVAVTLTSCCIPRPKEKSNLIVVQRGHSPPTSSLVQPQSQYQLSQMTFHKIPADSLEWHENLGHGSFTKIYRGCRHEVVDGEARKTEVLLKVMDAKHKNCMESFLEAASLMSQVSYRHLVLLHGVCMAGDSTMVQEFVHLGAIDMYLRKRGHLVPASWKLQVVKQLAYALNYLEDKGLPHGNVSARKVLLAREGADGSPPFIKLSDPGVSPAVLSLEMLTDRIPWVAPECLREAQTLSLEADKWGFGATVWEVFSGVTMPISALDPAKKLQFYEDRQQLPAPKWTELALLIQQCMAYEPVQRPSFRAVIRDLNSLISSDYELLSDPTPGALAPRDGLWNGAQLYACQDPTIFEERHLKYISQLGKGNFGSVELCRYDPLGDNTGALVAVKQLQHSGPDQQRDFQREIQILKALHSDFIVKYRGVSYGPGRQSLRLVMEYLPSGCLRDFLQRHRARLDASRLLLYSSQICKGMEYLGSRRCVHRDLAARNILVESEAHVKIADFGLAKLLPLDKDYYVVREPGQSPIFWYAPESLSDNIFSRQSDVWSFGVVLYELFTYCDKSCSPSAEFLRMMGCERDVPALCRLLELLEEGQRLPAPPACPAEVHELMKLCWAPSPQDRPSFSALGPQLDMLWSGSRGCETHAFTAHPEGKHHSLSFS
experiment.summary: Inhibition of recombinant human N-terminal His-tagged JAK3 catalytic domain (795 to 1124 residues) expressed in baculovirus expression system using Biotin-Lyn-Substrate2 after 1 hr by ELISA
measured.endpoint: IC50

NC(=O)c1cnc2[nH]ccc2c1N[C@@H]1C[C@H]2CC[C@@H]1C2 (racemic) | 3.2 nM
NC(=O)c1cnc2[nH]ccc2c1NC1C2CC3CC1CC(F)(C3)C2 (stereo not given) | 2.1 nM
NC(=O)c1cnc2[nH]ccc2c1NC12CC3CC(CC(C3)C1)C2 | 10 nM
NC(=O)c1cnc2[nH]ccc2c1NC1C2CC3CC(C2)CC1C3 (stereo not given) | 2.1 nM

API: the following record is the query input.
Problem: I have this compound here, COC12CC3CC(C1)C(Nc1c(C(N)=O)cnc4[nH]ccc14)C(C3)C2 (stereo not given) , and I need its recorded IC50.
Result: 0.63 nM

###

experiment.summary: Intrinsic clearance in Sprague-Dawley rat liver microsomes at 0.2 uM in presence of NADPH by LC-MS/MS analysis
Type: ADME, microsome
conditions: read-out: CLH
Recorded CLint scaled at 0.2 µM, one value per entry.
Respond numerically; units are mL/min/kg and should not be typed.

NC(=O)c1cnc2[nH]ccc2c1N[C@@H]1C[C@H]2CC[C@@H]1C2 (racemic) | 859

API: the following record is the query input.
Problem: I have this compound here, Br.NC(=O)c1cnc2[nH]ccc2c1NC1C2CC3CC1CC(O)(C3)C2 (stereo not given) , and I need its recorded CLint scaled at 0.2 µM.
Result: 124

###

experiment.summary: AUC (0 to infinity) in Sprague-Dawley rat at 1 mg/kg, po administered as single dose by LC-MS/MS analysis
Format: ADME, organism-based
Set-up: dose 1 mg/kg, route oral, time infinity
conditions: in vivo
measured.endpoint: AUC(0-inf)
Remember to quote the unit after the number.

Problem: I have this molecule here, Br.NC(=O)c1cnc2[nH]ccc2c1NC1C2CC3CC1CC(O)(C3)C2 (stereo unspecified) , and I need its recorded AUC(0-inf).
Result: 264 ng·h/mL

###

experiment.summary: Cmax in Sprague-Dawley rat at 1 mg/kg, po administered as single dose by LC-MS/MS analysis
Assay type: ADME, organism-based
Design: dose 1 mg/kg, route oral
conditions: in vivo
measured.endpoint: Cmax (ng/mL)
Respond numerically; units are ng/mL and should not be typed.

Problem: I have this molecule here, Br.NC(=O)c1cnc2[nH]ccc2c1NC1C2CC3CC1CC(O)(C3)C2 (stereo unspecified) , and I need its recorded Cmax.
Result: 126

###

experiment.summary: Volume of distribution at steady state in Sprague-Dawley rat at 1 mg/kg, iv administered as single dose by LC-MS/MS analysis
Type: ADME, organism-based
conditions: in vivo, read-out: Vdss
measured.endpoint: Vd (L/kg)
Respond numerically; units are L/kg and should not be typed.

Problem: I have this compound here, Br.NC(=O)c1cnc2[nH]ccc2c1NC1C2CC3CC1CC(O)(C3)C2 (stereo unspecified) , and I need its recorded Vd.
Result: 1.83

###

experiment.summary: Intrinsic clearance in Sprague-Dawley rat liver microsomes at 0.2 uM in presence of NADPH by LC-MS/MS analysis
Type: ADME, microsome
conditions: read-out: CLH
measured.endpoint: CLint scaled at 0.2 µM

Below, 2 compounds whose answers are already recorded.
COC12CC3CC(C1)C(Nc1c(C(N)=O)cnc4[nH]ccc14)C(C3)C2 (stereo not drawn) | > 1000 mL/min/kg
NC(=O)c1cnc2[nH]ccc2c1NC1C2CC3CC1CC(F)(C3)C2 (stereo not drawn) | > 1000 mL/min/kg

Problem: I have this compound here, NC(=O)c1cnc2[nH]ccc2c1NC1C2CC3CC(C2)CC1C3 (stereo not drawn) , and I need its recorded CLint scaled at 0.2 µM.
Result: > 1000 mL/min/kg
